Origin of the recorded values: patent US11795144B2

MEASUREMENT_TARGET: RAC1 (Homo sapiens, UniProt P63000)
READOUT_LABEL: IC50 (nM)

SMILES_REPR	READOUT_LABEL	OBSERVED_VALUE
COc1ccc(OC)c(NS(=O)(=O)c2ccc(NC(=O)CCCc3ccc(C)cc3)cc2)c1	IC50	0.1
